assay.name: Acute toxicity in mice
condition.description: mouse, in vivo; male mice (ddY), iv, after 7 days; read-out: LD50 (median lethal dose)
measured.property: LD50 at 168 h

Q) State, in one line, measured LD50 at 168 h of O=CN1CCN(c2ncc3c(=O)c(C(=O)N[C@@H](C(=O)N[C@@H]4C(=O)N5C(C(=O)O)=C(CSc6nnc(CC(=O)O)s6)CS[C@H]45)c4ccc(O)cc4)c[nH]c3n2)CC1
A) > 2000 mg/kg

---

Quick reference for solubility among some compounds
assay.name: Solubility in water
Type: physicochemical
condition.description: deionized water at 25° C.

A selection of reference data follows.
compound | observed
Cn1nnnc1SCC1=C(C(=O)[O-])N2C(=O)C(NC(=O)[C@H](NC(=O)c3c[nH]c4nc(N5CCNCC5)ncc4c3=O)c3ccc(O)cc3)[C@H]2SC1.[Na+] (stereo partly shown) | ~0.5 mg/mL
O=CN1CCN(c2ncc3c(=O)c(C(=O)N[C@@H](C(=O)N[C@@H]4C(=O)N5C(C(=O)O)=C(CSc6nnnn6CC(=O)O)CS[C@H]45)c4ccc(O)cc4)c[nH]c3n2)CC1 [Compound 1] | ~400 mg/mL

Q) State, in one line, measured solubility of O=CN1CCN(c2ncc3c(=O)c(C(=O)N[C@@H](C(=O)N[C@@H]4C(=O)N5C(C(=O)O)=C(CSc6nnc(CC(=O)O)s6)CS[C@H]45)c4ccc(O)cc4)c[nH]c3n2)CC1 [Compound 2]
A) ~150 mg/mL

Q) State, in one line, measured solubility of Cc1nnc(SCC2=C(C(=O)O)N3C(=O)[C@@H](NC(=O)Cn4cnnn4)[C@H]3SC2)s1 [B, Cefazolin]
A) 400 mg/mL

---

assay.name: Acute toxicity in mice
condition.description: mouse, in vivo, iv; read-out: LD50 (median lethal dose)
measured.property: LD50 at 168 h

Q) State, in one line, measured LD50 at 168 h of O=CN1CCN(c2ncc3c(=O)c(C(=O)N[C@@H](C(=O)N[C@@H]4C(=O)N5C(C(=O)O)=C(CSc6nnnn6CC(=O)O)CS[C@H]45)c4ccc(O)cc4)c[nH]c3n2)CC1
A) > 2000 mg/kg

---

assay.name: Acute toxicity in mice
condition.description: mouse, in vivo, ip; read-out: LD50 (median lethal dose)
measured.property: LD50 at 168 h

Q) State, in one line, measured LD50 at 168 h of Cn1nnnc1SCC1=C(C(=O)[O-])N2C(=O)C(NC(=O)[C@H](NC(=O)c3c[nH]c4nc(N5CCNCC5)ncc4c3=O)c3ccc(O)cc3)[C@H]2SC1.[Na+] (stereo partly shown)
A) ~1500 mg/kg
